- Target System: Cyclin-dependent kinase 2/cyclin A (Homo sapiens)
- Experiment Summary: Inhibition of CDK2/cyclin A (unknown origin) using […] incubated for 40 mins in presence of ATP by Kinase-Glo assay
Quantity Kind: IC50 (nM)

| Line Notation | IC50 / nM |
| --- | --- |
| NS(=O)(=O)c1ccc(Nc2ncc(F)c(Nc3nccs3)n2)cc1 | 10 |
| COc1cnc(Nc2ccc(S(N)(=O)=O)cc2)nc1Nc1nccs1 | 112 |
| Cc1csc(Nc2nc(Nc3ccc(S(N)(=O)=O)cc3)ncc2C)n1 | 10 |
| NS(=O)(=O)c1ccc(Nc2nccc(Nc3nccs3)n2)cc1 | 52 |
| COCCNS(=O)(=O)c1ccc(Nc2ncc(C)c(Nc3nccs3)n2)cc1 | 43 |
| Cc1cnc(Nc2ccc(S(C)(=O)=O)cc2)nc1Nc1nccs1 | 55 |
| CS(=O)(=O)c1ccc(Nc2nccc(Nc3nccs3)n2)cc1 | 110 |
| Cc1cnc(Nc2ccc(S(N)(=O)=O)cc2)nc1Nc1nc(C(C)C)cs1 | 11 |
| CC(C)c1csc(Nc2nc(Nc3ccc(S(N)(=O)=O)cc3)ncc2F)n1 | 8 |

1: Cc1cnc(Nc2nc(Nc3ccc(S(N)(=O)=O)cc3)ncc2F)s1
2: Cc1cnc(Nc2ccc(S(N)(=O)=O)cc2)nc1Nc1nccs1
Which value of IC50 is smaller, the one for 1 or the one for 2 ? # respond with the chosen item's label
2
(2: 4 nM, 1: 12 nM)

###

- Experiment Summary: MRT (0 to t) in Sprague-Dawley rat at 10 mg/kg, po measured for 36 hrs by MRM analysis
- Assay type: ADME, organism-based
- Settings: in vivo
Quantity Kind: MRT last at 36 h (h)
Response body: numeric value in h, unit text excluded.

For the compound Cc1cnc(Nc2ccc(S(N)(=O)=O)cc2)nc1Nc1nccs1 , give its reported MRT last at 36 h.
6.5

###

- Target System: Cyclin-dependent kinase 2/cyclin A (Homo sapiens) (UniProt P24941+P20248+P78396)
- Experiment Summary: Inhibition of CDK2/cyclin A (unknown origin) using […] at 1 uM incubated for 40 mins in presence of ATP by Kinase-Glo assay relative to control
- Assay type: protein-complex assay
Quantity Kind: inhibition (%)

Below: 3 compounds and their reported inhibition.
| Line Notation | Target System | inhibition [%] |
| --- | --- | --- |
| CC(C)c1ccc(-c2csc(Nc3nc(Nc4ccc(S(N)(=O)=O)cc4)ncc3F)n2)cc1 | Cyclin-dependent kinase 2/cyclin A (Homo sapiens) (UniProt P24941+P20248+P78396) | 65 |
| c1ccc(Nc2nccc(Nc3nccs3)n2)cc1 | Cyclin-dependent kinase 2/cyclin A (Homo sapiens) (UniProt P24941+P20248+P78396) | 61 |
| Cc1cnc(Nc2ccc(S(N)(=O)=O)cc2)nc1Nc1nc(-c2ccc(C(C)C)cc2)cs1 | Cyclin-dependent kinase 2/cyclin A (Homo sapiens) (UniProt P24941+P20248+P78396) | 84 |

P: Cc1cnc(Nc2ccc(S(N)(=O)=O)cc2)nc1Nc1nccs1
Q: CC(C)c1ccc(-c2csc(Nc3ccnc(Nc4ccc(S(N)(=O)=O)cc4)n3)n2)cc1
Which value of inhibition is smaller, the one for P or the one for Q ? # respond with the chosen item's label
Q

###

- Experiment Summary: AUC (0 to infinity) in Sprague-Dawley rat at 10 mg/kg, po measured for 36 hrs by MRM analysis
- Type: ADME, organism-based
- Settings: in vivo
Quantity Kind: AUC(0-inf) (ng·h/mL)
Response body: numeric value in ng·h/mL, unit text excluded.

For the compound Cc1cnc(Nc2ccc(S(N)(=O)=O)cc2)nc1Nc1nccs1 , give its reported AUC(0-inf).
146

###

- Tested on: A549
- Experiment Summary: Antiproliferative activity against human A549 cells assessed as cell growth inhibition incubated for 48 hrs by MTT assay
- Assay type: functional, cell-based
- Settings: A549, 48 h
pIC50: −log10 of the molar value.
Item-by-item account of pIC50

| Line Notation | Target System | pIC50 |
| --- | --- | --- |
| Cc1ncc(-c2ccnc(Nc3ccc(S(C)(=O)=O)cc3)n2)n1C(C)C | A549 | 5.83 |
| CCOC(=O)CNc1ccnc(Nc2ccc(OC)cc2)n1 | A549 | < 4.52 |

For the compound Cc1cnc(Nc2ccc(S(N)(=O)=O)cc2)nc1Nc1nccs1 , give its reported pIC50.
< 4.52

###

- Target System: Cyclin-dependent kinase 2/cyclin A (Homo sapiens) (UniProt P24941+P20248+P78396)
- Experiment Summary: Inhibition of CDK2/cyclin A (unknown origin) using […] at 1 uM incubated for 40 mins in presence of ATP by Kinase-Glo assay relative to control
- Format: protein-complex assay
Quantity Kind: inhibition (%)

Below: 3 compounds and their reported inhibition.
| Line Notation | Target System | inhibition, % |
| --- | --- | --- |
| Cc1csc(Nc2ccnc(Nc3ccc(S(N)(=O)=O)cc3)n2)n1 | Cyclin-dependent kinase 2/cyclin A (Homo sapiens) (UniProt P24941+P20248+P78396) | 85 |
| COc1cnc(Nc2ccc(S(N)(=O)=O)cc2)nc1Nc1ncc(C)s1 | Cyclin-dependent kinase 2/cyclin A (Homo sapiens) (UniProt P24941+P20248+P78396) | 72 |
| CCOC(=O)c1cnc(Nc2nc(Nc3ccc(S(N)(=O)=O)cc3)ncc2F)s1 | Cyclin-dependent kinase 2/cyclin A (Homo sapiens) (UniProt P24941+P20248+P78396) | 79 |

P: Fc1ccc(Nc2nccc(Nc3nccs3)n2)cc1
Q: CCOC(=O)c1cnc(Nc2nc(Nc3ccc(S(N)(=O)=O)cc3)ncc2C)s1
R: COc1cc(Nc2nccc(Nc3nccs3)n2)cc(OC)c1OC
S: COc1ccc(Nc2nccc(Nc3cc[nH]n3)n2)cc1
T: Brc1ccc(Nc2nccc(Nc3nccs3)n2)cc1
Sequence the entries by inhibition, beginning with the highest number. Form entry: labels listed in requested order.
Q, S, R, T, P

###

- Experiment Summary: Inhibition of CDK9/cyclin T (unknown origin) using […] incubated for 40 mins in presence of ATP by Kinase-Glo assay
- Parameters: species or system Homo sapiens
pIC50: −log10 of the molar value.
Quantity Kind: pIC50

Below: 4 compounds and their reported pIC50.
| Line Notation | Val |
| --- | --- |
| NS(=O)(=O)c1ccc(Nc2nccc(Nc3ncc([N+](=O)[O-])s3)n2)cc1 | 7.85 |
| COc1cnc(Nc2ccc(S(N)(=O)=O)cc2)nc1Nc1nccs1 | 7.96 |
| CCOC(=O)CNc1ccnc(Nc2ccc(OC)cc2)n1 | 4.58 |
| NS(=O)(=O)c1ccc(Nc2nccc(Nc3nccs3)n2)cc1 | 6.91 |

A: Cc1cnc(Nc2ccc(S(N)(=O)=O)cc2)nc1Nc1nc(C2CC2)cs1
B: Cc1ncc(-c2ccnc(Nc3ccc(S(C)(=O)=O)cc3)n2)n1C(C)C
From the recorded data, which exceeds the other in pIC50: A or B ? # respond with the chosen item's label
B

###

- Experiment Summary: Inhibition of CDK9/cyclin T (unknown origin) using […] incubated for 40 mins in presence of ATP by Kinase-Glo assay
- Set-up: species or system Homo sapiens
pIC50: −log10 of the molar value.
Quantity Kind: pIC50

Below: 5 compounds and their reported pIC50.
| Line Notation | pIC50 |
| --- | --- |
| Cc1cnc(Nc2ccc(S(C)(=O)=O)cc2)nc1Nc1nccs1 | 7.89 |
| Cc1cnc(Nc2nc(Nc3ccc(S(N)(=O)=O)cc3)ncc2C)s1 | 8.70 |
| CC(C)c1csc(Nc2nc(Nc3ccc(S(N)(=O)=O)cc3)ncc2F)n1 | 7.42 |
| Cc1cnc(Nc2ccc(S(N)(=O)=O)cc2)nc1Nc1nc(-c2ccc(F)cc2)cs1 | 7.05 |
| NS(=O)(=O)c1ccc(Nc2nccc(Nc3nc(C4CC4)cs3)n2)cc1 | 7.34 |

1: COc1ccc(Nc2nccc(Nc3nccs3)n2)cc1
2: NS(=O)(=O)c1ccc(Nc2ncc(F)c(Nc3nccs3)n2)cc1
3: Cc1csc(Nc2nc(Nc3ccc(S(N)(=O)=O)cc3)ncc2C)n1
4: Cc1cnc(Nc2ccc(S(N)(=O)=O)cc2)nc1Nc1nccs1
Sequence the entries by pIC50, beginning with the highest number. Form entry: labels listed in requested order.
4, 3, 2, 1

a: Cc1cnc(Nc2ccc(S(N)(=O)=O)cc2)nc1Nc1nc(C(C)C)cs1
b: CS(=O)(=O)c1ccc(Nc2nccc(Nc3nccs3)n2)cc1
Which value of pIC50 is smaller, the one for a or the one for b ? # respond with the chosen item's label
b
(b: 6.33, a: 6.53)

###

- Experiment Summary: Apparent volume of distribution in Sprague-Dawley rat at 2 mg/kg, iv measured for 36 hrs by MRM analysis
- Assay type: ADME, organism-based
- Settings: in vivo, read-out: Vz
Quantity Kind: Vd (L/kg)
Response body: numeric value in L/kg, unit text excluded.

For the molecule Cc1cnc(Nc2ccc(S(N)(=O)=O)cc2)nc1Nc1nccs1 , give its reported Vd.
275
